Below is a list of entries, each paired with its recorded kon value.
TESTED_ON: T1, human galectin-10-His (human)
T1 construct: The last M of the tag may be Met1 of galectin-10; also called humanGal10-His; hGal10
T1 chain: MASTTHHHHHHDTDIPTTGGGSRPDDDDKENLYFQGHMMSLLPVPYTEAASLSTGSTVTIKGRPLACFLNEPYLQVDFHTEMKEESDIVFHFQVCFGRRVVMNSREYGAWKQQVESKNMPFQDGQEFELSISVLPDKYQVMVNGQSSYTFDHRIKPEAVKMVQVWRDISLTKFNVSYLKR
ASSAY_DETAILS: SPR Biacore T3000, mouse IgG1 captured
Number only, in M⁻¹ s⁻¹; omit the unit.

Query :: Value lookup for kon; key = 10B02 mouse IgG1 (antibody, V domains shown, VH and VL cloned in frame with mouse IgG1 constant domains; also called 10B02 mIgG1) VH: QVQLVESGGGLVQPGGSLRVSCAASGFTFSYHYMNWVRQAPGKGLEWVSGISAGGGRTYYADSVKGRFTISRDNAKNTLYLQMNSLNAEDTALYYCARVHGITNDYWGQGTQVTVSS VL: QSALTQPPSVSGSPGKTVTISCAGTSSDVGYGNYVSWYQQLPGMAPKLLIYEVNKRASGITDRFSGSKSGNTAFLTISGLQSEDEADYYCASYRNSNNWVFGGGTHLTVL
Result :: 1.42e+06

Query :: Here is the next binder: 8H11 mouse IgG1 (antibody, V domains shown, VH and VL cloned in frame with mouse IgG1 constant domains; also called 8H11 mIgG1) VH: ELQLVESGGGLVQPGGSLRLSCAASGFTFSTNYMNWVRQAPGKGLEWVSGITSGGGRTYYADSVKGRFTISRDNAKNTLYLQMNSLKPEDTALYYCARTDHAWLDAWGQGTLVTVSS VL: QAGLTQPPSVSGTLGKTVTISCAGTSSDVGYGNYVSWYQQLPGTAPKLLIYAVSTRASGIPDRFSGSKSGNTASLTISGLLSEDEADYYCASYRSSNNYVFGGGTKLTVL
Result :: 2.31e+06

Query :: What do we get for 11F12 mouse IgG1 (antibody, V domains shown, VH and VL cloned in frame with mouse IgG1 constant domains; also called 11F12 mIgG1) VH: QVQLQESGGGLVQPGGSLRLSCAASGFTFSTNYMNWVRQAPGKGLEWVSGITSGGGRTYYADSVKGRFTISRDNAKNTLYLQMNSLKPEDTALYYCARTDHAWLDAWGQGTLVTVSS VL: HSAVTQPPSVSGTLGKTVTISCAGTSSDVGYGNYVSWYQHLPGTAPKLLIYAVSTRASGVPDRFSGSKSGNTASLTISGLQSEDEGDYYCASYSVRNNVVFGGGTRLTVL ?
Result :: 3.04e+06

Query :: Please answer likewise for 7B07 mouse IgG1 (antibody, V domains shown, VH and VL cloned in frame with mouse IgG1 constant domains; also called 7B07 mIgG1) VH: QVQLVESGGGLVQPGGSLRLSCAASGFTFRSYDMSWVRQAPGKGPEWVSAIKNGGGITYYADSVKGRFTISRDNAKNTLYLQMNSLKPEDTAVYYCATTHGIGTLGFGSWGQGTQVTVSS VL: SYELTQSASVSVALTQTAKITCDGNNIGSKSAQWYQQKPGQAPALVIYADEYRPEGIPERFSGSNSGNTATLIISGAQAEDEADYYCQVWDGSAAVFGRGTHLTVL
Result :: 2.78e+06

Below: the item to evaluate.
Query :: Report kon for 1D11 mouse IgG1 (antibody, V domains shown, Llama VH and VL on mouse IgG1 heavy chain constant domains (CH1-CH2-CH3) and mouse lambda light chain constant domain; also called 1D011; 1D11 mIgG1) VH: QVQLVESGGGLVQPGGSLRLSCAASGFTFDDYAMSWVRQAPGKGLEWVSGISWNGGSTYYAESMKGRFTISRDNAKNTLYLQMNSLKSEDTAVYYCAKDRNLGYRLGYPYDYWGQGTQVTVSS VL: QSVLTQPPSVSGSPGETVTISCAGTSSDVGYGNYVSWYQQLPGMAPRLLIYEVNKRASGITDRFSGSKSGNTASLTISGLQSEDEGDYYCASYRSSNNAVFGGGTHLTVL please.
Result :: 1.27e+07
